- assayed.system: Proto-oncogene tyrosine-protein kinase Src (Homo sapiens, UniProt P12931)
- Sequence (P12931 2-536 limits assumed): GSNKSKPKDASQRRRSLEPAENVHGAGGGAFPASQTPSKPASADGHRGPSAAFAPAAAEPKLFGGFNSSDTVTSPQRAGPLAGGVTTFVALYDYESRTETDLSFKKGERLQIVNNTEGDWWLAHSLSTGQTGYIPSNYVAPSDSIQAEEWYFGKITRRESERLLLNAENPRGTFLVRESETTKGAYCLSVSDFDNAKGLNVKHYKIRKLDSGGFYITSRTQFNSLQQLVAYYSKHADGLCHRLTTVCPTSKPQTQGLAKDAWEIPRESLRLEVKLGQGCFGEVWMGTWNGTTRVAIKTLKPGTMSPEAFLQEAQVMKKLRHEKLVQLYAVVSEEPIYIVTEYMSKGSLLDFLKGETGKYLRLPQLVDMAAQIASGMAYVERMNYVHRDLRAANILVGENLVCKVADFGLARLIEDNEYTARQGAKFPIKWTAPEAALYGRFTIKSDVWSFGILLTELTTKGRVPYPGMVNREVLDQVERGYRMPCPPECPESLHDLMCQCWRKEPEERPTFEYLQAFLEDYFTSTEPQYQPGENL
pIC50: −log10 of the molar value.
test.readout: pIC50

>  <molecular.string>
CCc1ccc2nc(Nc3cc(Cc4ccccc4)nc(N[C@H]4CC[C@H](O)CC4)n3)sc2c1

>  <assayed.system>
Proto-oncogene tyrosine-protein kinase Src (Homo sapiens, UniProt P12931)

>  <obs.value>
7.40

$$$$

====

- assayed.system: Aurora kinase B (Homo sapiens, UniProt Q96GD4)
- Sequence (Q96GD4 whole entry): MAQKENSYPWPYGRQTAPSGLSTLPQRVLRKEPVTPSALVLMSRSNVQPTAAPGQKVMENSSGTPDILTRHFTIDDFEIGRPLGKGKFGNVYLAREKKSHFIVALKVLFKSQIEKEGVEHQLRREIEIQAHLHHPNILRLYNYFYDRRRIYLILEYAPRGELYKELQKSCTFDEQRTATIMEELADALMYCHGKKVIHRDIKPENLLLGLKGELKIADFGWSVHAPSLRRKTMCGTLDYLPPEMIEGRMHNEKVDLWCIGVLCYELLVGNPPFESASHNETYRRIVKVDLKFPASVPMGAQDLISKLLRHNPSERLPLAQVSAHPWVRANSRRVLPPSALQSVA

>  <molecular.string>
CCc1ccc2nc(Nc3cc(Cc4ccccc4)nc(N[C@H]4CC[C@H](O)CC4)n3)sc2c1

>  <measurement.units>
nM

>  <IC50>
398

$$$$
